# test-protocol: Pharmacokinetics study in rats, intravenous
# Type: in vivo, SD rats
# condition-context: male, SD, plasma; rat, IV, 5 mg/kg; read-out: CL (converted)
assay-endpoint: clearance

Note clearance for the compound shown: COc1cccc(OCCCN)c1-c1cc(Nc2cnc(C#N)cn2)n[nH]1 [LY-2606368, reference compound]
7.9 L/h/kg

###

# Test system: MDA-MB-231
# test-protocol: Cancer cell growth inhibition assay (CellTiter-Glo), MDA-MB-231
# Type: cell-based, Human
# condition-context: Homo sapiens, MDA-MB-231; 72 hours, cellular ATP content; read-out: MDA-MB-231 anti cell proliferation activity (grade)
pIC50: −log10 of the molar value.
assay-endpoint: pIC50

Note pIC50 for the compound shown: COc1cc(F)cc(OCC2(CN)CC2)c1-c1cc(Nc2cnc(C#N)cn2)n[nH]1 [Compound 13]
7.30 to 8.00

Note pIC50 for the compound shown: COc1cccc(OCCCN)c1-c1cc(Nc2cnc(C#N)cn2)n[nH]1 [LY-2606368, reference compound]
7.30 to 8.00

Note pIC50 for the compound shown: COc1cc(F)cc(OCCCN)c1-c1cc(Nc2cnc(C#N)cn2)n[nH]1 [Compound 3]
7.00 to 7.30

Note pIC50 for the compound shown: COc1cc(OC)c(-c2cc(Nc3cnc(C#N)cn3)n[nH]2)c(OCC2(CN)CC2)c1 [Compound 17]
7.30 to 8.00

Note pIC50 for the compound shown: CNCC1(COc2cc(F)cc(OC)c2-c2cc(Nc3cnc(C#N)cn3)n[nH]2)CC1 [Compound 20]
7.30 to 8.00

Note pIC50 for the compound shown: COc1cc(C)cc(OCC2(CN)CC2)c1-c1cc(Nc2cnc(C#N)cn2)n[nH]1 [Compound 16]
7.30 to 8.00

Note pIC50 for the compound shown: COc1c(F)ccc(OCCCN)c1-c1cc(Nc2cnc(C#N)cn2)n[nH]1 [Compound 2]
6.30 to 7.00

###

# test-protocol: Pharmacokinetics study in rats, intravenous
# Format: in vivo, SD rats
# condition-context: male, SD, rat, plasma, iv, 10 mg/kg, IV, 10 mg/kg, read-out: Vss
assay-endpoint: Vd (L/kg)
Express it in L/kg; write the number only.

Note Vd for the compound shown: COc1cc(Cl)cc(OCC2(CN)CC2)c1-c1cc(Nc2cnc(C#N)cn2)n[nH]1 [Compound 14]
13.9

Note Vd for the compound shown: COc1cc(Cl)cc(OCCCN)c1-c1cc(Nc2cnc(C#N)cn2)n[nH]1 [Compound 4]
14.3

Note Vd for the compound shown: COc1cc(Br)cc(OCCCN)c1-c1cc(Nc2cnc(C#N)cn2)n[nH]1 [Compound 5]
10.2

Note Vd for the compound shown: COc1cc(Br)cc(OCC2(CN)CC2)c1-c1cc(Nc2cnc(C#N)cn2)n[nH]1 [Compound 15]
19.2

###

Field: melting point. Provide a value for each of the molecules that follow.

Note melting point for the molecule shown: CNCC1(COc2c(F)ccc(OC)c2-c2cc(Nc3cnc(C#N)cn3)n[nH]2)CC1 [Compound 18]
213 to 215 °C

Note melting point for the molecule shown: COc1cc(F)cc(OCC2(CN)CC2)c1-c1cc(Nc2cnc(C#N)cn2)n[nH]1 [Compound 13]
202 to 206 °C

Note melting point for the molecule shown: COc1cc(OC)c(-c2cc(Nc3cnc(C#N)cn3)n[nH]2)c(OCC2(CN)CC2)c1 [Compound 17]
160 to 164 °C

Note melting point for the molecule shown: COc1cc(Cl)cc(OCCCN)c1-c1cc(Nc2cnc(C#N)cn2)n[nH]1 [Compound 4]
198 to 203 °C

Note melting point for the molecule shown: CNCC1(COc2ccc(F)c(OC)c2-c2cc(Nc3cnc(C#N)cn3)n[nH]2)CC1 [Compound 19]
215 to 219 °C

Note melting point for the molecule shown: CNCC1(COc2cc(F)cc(OC)c2-c2cc(Nc3cnc(C#N)cn3)n[nH]2)CC1 [Compound 20]
228 to 230 °C

Note melting point for the molecule shown: COc1cc(C)cc(OCC2(CN)CC2)c1-c1cc(Nc2cnc(C#N)cn2)n[nH]1 [Compound 16]
165 to 170 °C

Note melting point for the molecule shown: COc1ccc(F)c(OCCCN)c1-c1cc(Nc2cnc(C#N)cn2)n[nH]1 [Compound 1]
221 to 224 °C
